Molecular target: TGR5 (Homo sapiens, UniProt Q8TDU6)
Sequence (Q8TDU6 1-330): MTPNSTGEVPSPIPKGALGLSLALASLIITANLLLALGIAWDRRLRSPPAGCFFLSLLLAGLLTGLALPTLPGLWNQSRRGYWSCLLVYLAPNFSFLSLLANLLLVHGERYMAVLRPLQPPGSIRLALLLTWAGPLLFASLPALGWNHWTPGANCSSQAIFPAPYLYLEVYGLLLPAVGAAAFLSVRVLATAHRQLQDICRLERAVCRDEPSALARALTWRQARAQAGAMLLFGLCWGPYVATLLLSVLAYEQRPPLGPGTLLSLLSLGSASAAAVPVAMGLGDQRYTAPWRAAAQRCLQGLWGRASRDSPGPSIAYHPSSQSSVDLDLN
Assay: TGR5 activity: intracellular cAMP levels, NCI-H716 cells (HTR-FRET)
Assay type: cell-based
Set-up: endogenous in cells; host or cells: NCI-H716
Conditions: 1 h; NCI-H716 cells; Ref. LCA 100% at 10 μM; read-out: TGR5 (NCI-H716) Efficacy
compounds and their reported Emax
# number only, unit % dropped from output

CC[C@H]1[C@@H](O)C2C3CC[C@H]([C@H](C)CCc4nn[nH]n4)[C@@]3(C)[C@@H](O)CC2[C@@]2(C)CC[C@@H](O)C[C@@H]12 (stereo partly shown); 104
CC[C@H]1[C@@H](O)C2C3CC[C@H]([C@H](C)CCc4noc(=O)[nH]4)[C@@]3(C)[C@@H](O)CC2[C@@]2(C)CC[C@@H](O)C[C@@H]12 (stereo partly shown); 105
CC[C@H]1[C@@H](O)[C@@H]2[C@H](C[C@H](O)[C@]3(C)[C@@H]([C@H](C)C[C@H](O)C(=O)O)CC[C@@H]23)[C@@]2(C)CC[C@@H](O)C[C@@H]12; 40

We now examine a further compound.
Ask | Item CC[C@H]1[C@@H](O)C2C3CC[C@H]([C@H](C)CCc4nn[nH]n4)[C@@]3(C)CCC2[C@@]2(C)CC[C@@H](O)C[C@@H]12 (stereo partly shown) with TGR5 (Homo sapiens, UniProt Q8TDU6) - Emax?
Reply | 97

###

target: bovine serum albumin (Bos taurus); assay: Albumin binding by equilibrium dialysis; format: in vitro ADME; settings: 5% bovine serum albumin saline solution, 25° C.
Sequence (P02769 25-607): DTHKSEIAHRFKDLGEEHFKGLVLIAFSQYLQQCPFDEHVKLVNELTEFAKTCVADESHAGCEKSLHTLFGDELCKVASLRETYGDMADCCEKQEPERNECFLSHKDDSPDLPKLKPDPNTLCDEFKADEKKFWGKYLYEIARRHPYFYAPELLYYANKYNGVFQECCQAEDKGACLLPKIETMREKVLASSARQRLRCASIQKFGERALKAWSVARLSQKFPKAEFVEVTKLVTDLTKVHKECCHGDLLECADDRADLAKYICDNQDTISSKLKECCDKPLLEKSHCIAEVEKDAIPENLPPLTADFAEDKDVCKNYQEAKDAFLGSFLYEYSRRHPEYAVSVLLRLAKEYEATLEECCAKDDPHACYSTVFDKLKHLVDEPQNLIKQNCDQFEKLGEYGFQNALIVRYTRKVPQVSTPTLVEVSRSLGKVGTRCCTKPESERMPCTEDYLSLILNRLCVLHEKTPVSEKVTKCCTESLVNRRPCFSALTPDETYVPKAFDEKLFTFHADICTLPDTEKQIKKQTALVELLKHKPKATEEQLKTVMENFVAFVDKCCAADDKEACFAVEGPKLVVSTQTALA
Each item that follows carries a reported Albumin binding (%).
Reply numerically in %, unit not repeated.

// below: answered compounds
CC[C@H]1[C@@H](O)C2C3CC[C@H]([C@H](C)C[C@@H](CO)C(=O)O)[C@@]3(C)[C@@H](O)CC2[C@@]2(C)CC[C@@H](O)C[C@@H]12 (stereo partly drawn); 55
CC[C@H]1[C@@H](O)C2C3CC[C@H]([C@H](C)CCc4noc(=O)[nH]4)[C@@]3(C)[C@@H](O)CC2[C@@]2(C)CC[C@@H](O)C[C@@H]12 (stereo partly drawn); 84

Ask | Please give the measured Albumin binding (%) for this compound: CC[C@H]1[C@@H](O)C2C3CC[C@H]([C@H](C)CCc4nn[nH]n4)[C@@]3(C)[C@@H](O)CC2[C@@]2(C)CC[C@@H](O)C[C@@H]12 (stereo partly drawn)
Reply | 83
